The measured values listed here are drawn from patent US20250333371A1.

assay: In vivo pharmacokinetics: plasma and brain exposure after IP administration; design: species or system male C57BL/6 mice; settings: male, C57BL/6, mouse, brain, ip, 10 mg/kg, 0.083 h, individual mice, read-out: Brain Parenchyma Concentration (μM) Individual
I'd be grateful if you could share measured concentration at 0.083 h for these entries.
One number for each entry, in µM.

concentration at 0.083 h lookup needed for COc1ccc2cccc(CCN(C)C(C)C)c2c1 , thanks.
6.41

Kindly consider the entry below.
concentration at 0.083 h lookup needed for COc1ccc2cccc(CCN(C)C3CC3)c2c1 , thanks.
16.9

* * *

I'd be grateful if you could share measured EC50 for these entries.
target: 5-HT2B (Homo sapiens); construct: host or cells: CHO-K1; test: FLIPR Ca2+ flux functional assay, 5-HT2B receptor (stably transfected CHO-K1); format: cell-based; settings: agonist activity, Ca2+ flux, CHO-K1; read-out: 5-HT2B EC50
Sequence (P41595 whole entry): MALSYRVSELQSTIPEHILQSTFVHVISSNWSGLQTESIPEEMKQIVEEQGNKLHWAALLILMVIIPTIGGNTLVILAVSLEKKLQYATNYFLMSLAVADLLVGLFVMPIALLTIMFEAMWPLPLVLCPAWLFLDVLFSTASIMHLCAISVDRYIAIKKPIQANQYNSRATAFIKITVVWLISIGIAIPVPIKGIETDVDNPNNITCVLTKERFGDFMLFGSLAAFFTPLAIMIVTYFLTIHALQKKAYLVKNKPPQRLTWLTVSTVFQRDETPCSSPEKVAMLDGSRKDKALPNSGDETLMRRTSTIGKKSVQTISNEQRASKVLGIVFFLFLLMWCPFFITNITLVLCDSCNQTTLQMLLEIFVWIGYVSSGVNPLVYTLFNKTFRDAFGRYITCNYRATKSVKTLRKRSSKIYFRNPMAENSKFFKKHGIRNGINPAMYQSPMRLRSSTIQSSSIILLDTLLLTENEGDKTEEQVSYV
Numbers only, in µM.

These recorded examples may help you get a feel for the data.
EC50 lookup needed for COc1cccc2cccc(CCN(C(C)C)C(C)C)c12 [Example I-24] , thanks.
4.7

EC50 lookup needed for COc1ccc2cccc(CCN(C(C)C)C(C)C)c2c1 [Example I-4] , thanks.
1.2

EC50 lookup needed for CCCN(CCC)CCc1cccc2cccc(OC)c12 [Example I-23] , thanks.
0.103

Kindly consider the entry below.
EC50 lookup needed for CCCN(CCC)CCc1cccc2ccc(OC)cc12 [Example I-3] , thanks.
0.225

* * *

Assay: In vivo pharmacokinetics: plasma and brain exposure after IP administration
Parameters: species or system male C57BL/6 mice
Details: male, C57BL/6, mouse, brain/plasma, ip, 10 mg/kg, 4 h, individual mice, read-out: B:P Ratio Individual
Procedure: The study was conducted using established procedures in accordance with the Australian Code of Practice for the Care and Use of Animals for Scientific Purposes, and the study protocols were reviewed and approved by the Monash Institute of Pharmaceutical Sciences Animal Ethics Committee. […] Concentrations of test compound in plasma and tissue samples were determined using an LCMS/MS method validated for linearity, accuracy, precision, matrix factor and recovery (Table 2). […]
Measured Metric: Kp at 4 h

Kp at 4 h lookup needed for COc1ccc2cccc(CCN(C)C(C)C)c2c1 , thanks.
16

Kindly consider the entry below.
Kp at 4 h lookup needed for COc1ccc2cccc(CCN(C)C3CC3)c2c1 , thanks.
7.9

* * *

assay: In vivo pharmacokinetics: plasma and brain exposure after IP administration; parameters: species or system male C57BL/6 mice; conditions: male, C57BL/6, mouse, brain, ip, 10 mg/kg, 0.083 h, n = 3, read-out: Brain Parenchyma Concentration (μM) Mean ± SD
Measured Metric: concentration at 0.083 h (µM)
Numbers only, in µM.

concentration at 0.083 h lookup needed for COc1ccc2cccc(CCN(C)C3CC3)c2c1 , thanks.
12.1

Kindly consider the entry below.
concentration at 0.083 h lookup needed for COc1ccc2cccc(CCN(C)C(C)C)c2c1 , thanks.
8.4

* * *

target: 5-HT2C (Homo sapiens); construct: host or cells: HEK293; assay: FLIPR Ca2+ flux functional assay, 5-HT2C receptor (stably transfected HEK293); type: cell-based; settings: agonist activity, Ca2+ flux, HEK293; read-out: 5-HT2C EC50
Sequence (P28335 33-458): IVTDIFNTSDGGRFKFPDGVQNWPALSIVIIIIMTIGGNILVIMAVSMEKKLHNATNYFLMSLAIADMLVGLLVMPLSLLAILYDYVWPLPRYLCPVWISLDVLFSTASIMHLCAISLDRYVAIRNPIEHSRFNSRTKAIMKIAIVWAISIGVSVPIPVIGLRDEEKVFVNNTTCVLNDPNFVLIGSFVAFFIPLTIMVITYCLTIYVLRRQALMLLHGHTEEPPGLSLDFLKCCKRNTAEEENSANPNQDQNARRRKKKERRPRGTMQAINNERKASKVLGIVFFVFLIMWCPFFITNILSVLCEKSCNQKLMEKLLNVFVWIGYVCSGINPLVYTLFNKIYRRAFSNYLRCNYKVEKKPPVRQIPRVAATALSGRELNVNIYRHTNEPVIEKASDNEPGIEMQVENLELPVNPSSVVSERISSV
Measured Metric: pEC50
One number for each entry, as −log10 of the molar value.

These recorded examples may help you get a feel for the data.
pEC50 lookup needed for COc1cccc(CNCCc2cccc3ccc(OC)cc23)c1 , thanks.
7.74

pEC50 lookup needed for COc1cccc2cccc(CCN(C)C3CC3)c12 , thanks.
6.39

pEC50 lookup needed for CN(CCc1cccc2ccc(F)cc12)C1CC1 , thanks.
6.82

Give one value of pEC50 per listed compound.
1. COc1ccc2cccc(CCN(C)C)c2n1
2. CCCN(CCC)CCc1cccc2cccc(OC)c12

1. 6.50
2. 6.54
